pEC50 for assorted binders
Molecular target: T1, full-length human Notch1 expressed on the cell surface (human, UniProt P46531 19-2555)
T1 construct: whole, on cells; On U-2 OS cells stably overexpressing it (ELISAs, reporter cells); also called cell surface full-length human Notch1; native Notch1 receptor
T1 sequence (P46531 19-2555): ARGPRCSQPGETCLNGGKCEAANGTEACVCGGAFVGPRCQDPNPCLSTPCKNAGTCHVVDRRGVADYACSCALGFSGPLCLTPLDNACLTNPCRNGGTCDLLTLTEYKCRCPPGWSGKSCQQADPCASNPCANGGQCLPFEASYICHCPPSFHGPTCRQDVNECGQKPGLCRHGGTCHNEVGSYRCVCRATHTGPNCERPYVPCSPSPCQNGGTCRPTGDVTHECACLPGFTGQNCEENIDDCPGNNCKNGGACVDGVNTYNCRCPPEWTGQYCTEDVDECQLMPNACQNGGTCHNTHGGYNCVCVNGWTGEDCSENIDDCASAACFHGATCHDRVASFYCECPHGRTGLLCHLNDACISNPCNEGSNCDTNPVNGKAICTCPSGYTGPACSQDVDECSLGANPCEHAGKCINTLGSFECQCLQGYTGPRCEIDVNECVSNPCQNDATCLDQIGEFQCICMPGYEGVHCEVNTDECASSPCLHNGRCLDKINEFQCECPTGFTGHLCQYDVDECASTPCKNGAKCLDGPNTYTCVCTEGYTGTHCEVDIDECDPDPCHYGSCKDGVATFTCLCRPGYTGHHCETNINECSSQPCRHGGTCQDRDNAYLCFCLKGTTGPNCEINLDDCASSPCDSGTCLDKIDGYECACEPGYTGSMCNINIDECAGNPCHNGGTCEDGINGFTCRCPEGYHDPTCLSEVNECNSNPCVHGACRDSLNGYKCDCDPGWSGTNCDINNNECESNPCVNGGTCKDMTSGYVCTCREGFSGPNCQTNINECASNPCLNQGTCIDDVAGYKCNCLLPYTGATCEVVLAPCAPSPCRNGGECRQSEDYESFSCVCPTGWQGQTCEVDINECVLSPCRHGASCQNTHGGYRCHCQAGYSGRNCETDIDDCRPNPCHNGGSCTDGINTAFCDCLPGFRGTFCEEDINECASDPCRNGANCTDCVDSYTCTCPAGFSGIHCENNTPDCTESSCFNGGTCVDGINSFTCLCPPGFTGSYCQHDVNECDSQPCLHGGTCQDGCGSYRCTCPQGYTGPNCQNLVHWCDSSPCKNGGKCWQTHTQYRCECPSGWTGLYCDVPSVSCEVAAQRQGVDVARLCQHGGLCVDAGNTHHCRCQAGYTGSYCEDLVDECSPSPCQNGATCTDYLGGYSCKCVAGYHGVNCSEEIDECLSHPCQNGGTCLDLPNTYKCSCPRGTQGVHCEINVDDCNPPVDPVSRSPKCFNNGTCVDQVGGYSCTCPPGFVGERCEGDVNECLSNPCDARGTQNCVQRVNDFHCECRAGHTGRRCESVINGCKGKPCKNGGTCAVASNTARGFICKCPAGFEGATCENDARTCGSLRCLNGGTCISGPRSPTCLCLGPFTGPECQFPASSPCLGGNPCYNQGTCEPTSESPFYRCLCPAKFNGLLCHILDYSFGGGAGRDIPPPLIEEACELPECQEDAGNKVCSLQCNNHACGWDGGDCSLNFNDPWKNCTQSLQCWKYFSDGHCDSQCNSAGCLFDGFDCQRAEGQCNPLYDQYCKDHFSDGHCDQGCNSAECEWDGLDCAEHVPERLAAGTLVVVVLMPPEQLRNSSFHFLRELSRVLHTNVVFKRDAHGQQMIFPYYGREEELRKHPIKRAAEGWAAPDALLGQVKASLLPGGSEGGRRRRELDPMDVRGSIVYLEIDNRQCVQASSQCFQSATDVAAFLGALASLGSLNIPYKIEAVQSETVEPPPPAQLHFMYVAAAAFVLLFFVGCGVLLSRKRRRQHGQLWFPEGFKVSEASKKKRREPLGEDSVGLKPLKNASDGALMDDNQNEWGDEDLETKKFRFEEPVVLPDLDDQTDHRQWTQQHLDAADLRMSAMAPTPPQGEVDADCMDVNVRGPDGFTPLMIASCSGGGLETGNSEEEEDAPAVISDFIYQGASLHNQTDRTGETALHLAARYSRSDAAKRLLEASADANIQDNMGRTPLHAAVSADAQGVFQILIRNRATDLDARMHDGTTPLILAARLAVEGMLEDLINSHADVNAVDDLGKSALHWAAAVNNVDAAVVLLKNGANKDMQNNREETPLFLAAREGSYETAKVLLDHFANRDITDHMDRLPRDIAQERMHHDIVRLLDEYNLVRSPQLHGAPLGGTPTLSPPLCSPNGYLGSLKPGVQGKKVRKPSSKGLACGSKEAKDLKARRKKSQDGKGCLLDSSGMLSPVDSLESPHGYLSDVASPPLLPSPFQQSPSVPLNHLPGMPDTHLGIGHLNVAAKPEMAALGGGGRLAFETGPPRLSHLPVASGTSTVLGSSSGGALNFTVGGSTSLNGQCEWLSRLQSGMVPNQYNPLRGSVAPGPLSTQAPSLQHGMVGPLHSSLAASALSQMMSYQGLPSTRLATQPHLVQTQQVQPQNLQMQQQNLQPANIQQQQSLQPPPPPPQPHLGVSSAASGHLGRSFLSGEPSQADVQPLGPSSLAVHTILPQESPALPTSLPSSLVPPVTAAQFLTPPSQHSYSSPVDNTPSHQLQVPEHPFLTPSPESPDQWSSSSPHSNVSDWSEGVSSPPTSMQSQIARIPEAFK
Assay: competition ELISA on U-2 OS cells expressing full-length human Notch1; competitor 0.8 nM biotinylated rat 438
Scale explanation: pEC50 corresponds to minus log10 of a concentration expressed in moles per litre.

Use the examples below as a reference point.
1. humanized 438 VH1.1/VL1.0 (antibody, human IgG1, V domains shown) VH: EVQLVESGGGLVQPGGSLRLSCAASGFTFSSFAMAWVRQAPGKGLEWVASISYGGADTYYRDSVKGRFTISRDNAKNSLYLQMNSLRAEDTAVYYCAKDLPYYGYTPFVMDAWGQGTLVTVSS VL: DIQMTQSPSSLSASVGDRVTITCRASQRINTDLHWYQQKPGKAPKLLIYFASQTISGVPSRFSGSGSGTDFTLTISSLQPEDFATYYCQQSNSWPYTFGQGTKLEIK; 8.55
2. humanized 438 VH1.1/VL1.8 (antibody, human IgG1, kappa, V domains shown, full chains (VH1.1)-hIgG1-3M and (VL1.8)-hkappa) VH: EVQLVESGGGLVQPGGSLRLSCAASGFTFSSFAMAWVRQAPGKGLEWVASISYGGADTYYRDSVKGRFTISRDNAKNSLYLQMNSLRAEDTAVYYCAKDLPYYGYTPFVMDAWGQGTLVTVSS VL: DIQMTQSPSSLSASVGDRVTITCRASQRINTDLHWYQQKPGKAPKVLIKFASQTISGVPSRFSGSGSGTDFTLTISSLQPEDFATYYCQQSNSWPYTFGQGTKLEIKR; 8.49
3. rat 438-mIgG1 (antibody, V domains shown, also called r438-mIgG; Rat438-mlgG) VH: AVQLVESGGGLVQPGRSLKLSCTASGFTFSSFAMAWVRQAPTKGLEWVASISYGGADTYYRDSVKGRFTISRDNAKSSLYLQMDSLRSEDTSTYYCAKDLPYYGYTPFVMDAWGQGTSVTVSS VL: DIMLTQSPPTLSVTPGETISLSCRASQRINTDLHWYQQKPNESPRVLIKFASQTISGVPSRFSGSGSGTDFTLNINRVEPEDFSVYYCQQSNSWPYTFGAGTKLELK; 8.44
4. humanized 438 VH1.1/VL1.9 (antibody, human IgG1, V domains shown) VH: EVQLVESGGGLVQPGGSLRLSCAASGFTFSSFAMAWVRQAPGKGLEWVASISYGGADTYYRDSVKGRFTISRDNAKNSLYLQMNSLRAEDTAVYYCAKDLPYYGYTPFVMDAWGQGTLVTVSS VL: DIMLTQSPSSLSASVGDRVTITCRASQRINTDLHWYQQKPGKAPKVLIKFASQTISGVPSRFSGSGSGTDFTLTISSLQPEDFATYYCQQSNSWPYTFGQGTKLEIK; 8.66
5. humanized 438 VH1.0/VL1.1 (antibody, human IgG1, V domains shown) VH: EVQLVESGGGLVQPGGSLRLSCAASGFTFSSFAMAWVRQAPGKGLEWVASISYGGADTYYRDSVKGRFTISRDNAKNSLYLQMNSLRAEDTAVYYCARDLPYYGYTPFVMDAWGQGTLVTVSS VL: DIQLTQSPSSLSASVGDRVTITCRASQRINTDLHWYQQKPGKAPKVLIKFASQTISGVPSRFSGSGSGTDFTLTISSLQPEDFATYYCQQSNSWPYTFGQGTKLEIK; 8.40

Give a short answer stating reported pEC50 for humanized 438 VH1.0/VL1.8 (antibody, human IgG1, V domains shown) VH: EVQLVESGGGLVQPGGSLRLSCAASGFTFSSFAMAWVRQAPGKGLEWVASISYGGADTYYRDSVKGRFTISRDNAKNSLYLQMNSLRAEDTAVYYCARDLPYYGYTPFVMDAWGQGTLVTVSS VL: DIQMTQSPSSLSASVGDRVTITCRASQRINTDLHWYQQKPGKAPKVLIKFASQTISGVPSRFSGSGSGTDFTLTISSLQPEDFATYYCQQSNSWPYTFGQGTKLEIK .
7.94

Give a short answer stating reported pEC50 for humanized 438 VH1.1/VL1.3 (antibody, human IgG1, V domains shown) VH: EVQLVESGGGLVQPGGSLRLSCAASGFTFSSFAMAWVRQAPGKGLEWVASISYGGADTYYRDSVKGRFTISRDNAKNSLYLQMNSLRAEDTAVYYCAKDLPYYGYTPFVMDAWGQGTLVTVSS VL: DIQLTQSPSSLSASVGDRVTITCRASQRINTDLHWYQQKPGKAPKLLIYFASQTISGVPSRFSGSGSGTDFTLTISSLQPEDFATYYCQQSNSWPYTFGQGTKLEIK .
8.55

Give a short answer stating reported pEC50 for humanized 438 VH1.1/VL1.1 (antibody, human IgG1, V domains shown) VH: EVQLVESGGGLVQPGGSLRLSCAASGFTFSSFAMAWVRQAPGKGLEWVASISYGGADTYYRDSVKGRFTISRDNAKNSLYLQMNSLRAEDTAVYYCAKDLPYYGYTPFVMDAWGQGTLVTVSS VL: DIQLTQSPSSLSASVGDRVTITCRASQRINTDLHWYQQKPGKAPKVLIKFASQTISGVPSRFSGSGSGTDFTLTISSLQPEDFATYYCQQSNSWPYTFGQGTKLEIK .
8.62

Give a short answer stating reported pEC50 for humanized 438 VH1.1/VL1.5 (antibody, human IgG1, V domains shown) VH: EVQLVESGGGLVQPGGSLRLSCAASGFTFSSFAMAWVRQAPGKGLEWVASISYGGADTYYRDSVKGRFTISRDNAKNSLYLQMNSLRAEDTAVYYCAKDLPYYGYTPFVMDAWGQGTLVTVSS VL: DIQMTQSPSSLSASVGDRVTITCRASQRINTDLHWYQQKPGKAPKLLIKFASQTISGVPSRFSGSGSGTDFTLTISSLQPEDFATYYCQQSNSWPYTFGQGTKLEIK .
8.48

Give a short answer stating reported pEC50 for rat 438-hIgG1 (antibody, V domains shown, also called r438-hIgG) VH: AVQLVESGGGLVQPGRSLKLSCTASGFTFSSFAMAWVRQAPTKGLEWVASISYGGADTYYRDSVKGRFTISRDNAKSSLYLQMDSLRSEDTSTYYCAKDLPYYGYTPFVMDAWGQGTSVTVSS VL: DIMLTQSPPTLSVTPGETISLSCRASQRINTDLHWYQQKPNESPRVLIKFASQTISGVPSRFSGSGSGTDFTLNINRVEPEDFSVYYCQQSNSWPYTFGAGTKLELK .
8.36

Origin of the recorded values: patent US20160002331A1
